All values here come from patent US8685668B2.

molecular target: T1, GPIIb/IIIa (integrin αIIbβ3) (Homo sapiens, UniProt P05106+P08514); assay: ADP-induced platelet aggregation inhibition assay in platelet-rich plasma; type: cell-based; settings: inhibitor added one minute prior to ADP (1 μM)
T1 construct: endogenous in cells; host or cells: platelets in fresh platelet-rich plasma

# molecule, IC50
rows = [
    ("contortrostatin (protein) DAPANPCCDAATCKLTTGSQCADGLCCDQCKFMKEGTVCRRARGDDLDDYCNGISAGCPRNPFH", "~60 nM"),
]
